Here the recorded Dmax is given for each entry.
- test target: BRAF V600E (Homo sapiens, UniProt P15056, V600E)
- Construct: endogenous C-terminal HiBiT fusion tag on BRAF V600E allele; endogenous in cells; host or cells: A375 clone 1F10 (CRISPR-Cas9 knock-in of the HiBiT tag; parental A375 from ATCC)
- Sequence (P15056 whole entry V600E, the tested form may be a part): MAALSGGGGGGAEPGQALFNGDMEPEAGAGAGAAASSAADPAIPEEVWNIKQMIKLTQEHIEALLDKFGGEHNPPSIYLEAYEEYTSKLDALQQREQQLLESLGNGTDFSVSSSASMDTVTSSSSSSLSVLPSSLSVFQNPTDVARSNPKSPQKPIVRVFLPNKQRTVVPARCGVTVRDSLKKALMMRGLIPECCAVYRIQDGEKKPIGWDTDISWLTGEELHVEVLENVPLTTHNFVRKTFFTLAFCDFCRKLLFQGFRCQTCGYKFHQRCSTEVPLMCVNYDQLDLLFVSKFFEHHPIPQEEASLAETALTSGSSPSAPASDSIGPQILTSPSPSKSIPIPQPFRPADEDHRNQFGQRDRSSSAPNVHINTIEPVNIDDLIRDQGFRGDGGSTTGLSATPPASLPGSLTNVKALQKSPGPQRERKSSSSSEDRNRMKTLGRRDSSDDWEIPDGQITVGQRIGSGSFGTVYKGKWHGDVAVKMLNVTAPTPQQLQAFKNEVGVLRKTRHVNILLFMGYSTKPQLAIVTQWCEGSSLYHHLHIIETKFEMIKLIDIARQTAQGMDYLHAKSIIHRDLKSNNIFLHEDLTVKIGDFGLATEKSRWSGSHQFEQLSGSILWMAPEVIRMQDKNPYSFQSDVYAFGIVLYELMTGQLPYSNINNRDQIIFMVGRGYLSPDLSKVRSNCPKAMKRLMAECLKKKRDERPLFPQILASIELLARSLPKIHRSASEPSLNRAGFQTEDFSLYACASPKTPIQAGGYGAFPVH
- method description: BRAF HiBiT degradation assay, C-terminal HiBiT-tagged BRAF V600E A375 cells (clone 1F10), Nano-Glo HiBiT Lytic assay
- Assay type: cell-based
- run conditions: A-375; A375 (BRAF V600E); percentage protein degraded at maximal compound effect relative to DMSO

The following molecules have reported results that may help.
# molecule, Dmax
measured = [
    ("CCCS(=O)(=O)Nc1cccc(-c2nc(C(C)(C)C)sc2-c2ccnc(Nc3cnn(C4CCN(C(=O)[C@H]5CC[C@H](Oc6ccc(C7CCC(=O)NC7=O)cn6)CC5)CC4)c3)n2)c1F (mixture of isomers)", "> 70%"),
    ("CCCS(=O)(=O)Nc1cccc(-c2nc(C(C)(C)C)sc2-c2ccnc(Nc3ccc(C4CCN(C(=O)C[C@H]5CCN(c6ccc(C7CCC(=O)NC7=O)cc6)C5)CC4)cc3)n2)c1F (mixture of isomers)", "30 to 70%"),
    ("CCCS(=O)(=O)Nc1cccc(-c2nc(C(C)(C)C)sc2-c2ccnc(Nc3ccc(N4CCN(CC5CCN(c6ccc([C@@H]7CCC(=O)NC7=O)cc6)CC5)CC4)cc3)n2)c1F", "> 70%"),
]

[in] # Dmax lookup, item CCCS(=O)(=O)Nc1cccc(-c2nc(C(C)(C)C)sc2-c2ccnc(Nc3cnn(CC4CCN(C(=O)[C@H]5CC[C@H](Oc6ccc(C7CCC(=O)NC7=O)cn6)CC5)CC4)c3)n2)c1F (mixture of isomers)
[out] > 70%

[in] # Dmax lookup, item CCCS(=O)(=O)Nc1cccc(-c2nc(C(C)(C)C3CCN(C(=O)CN4CCC5(CC4)CN(c4ccc6c(c4)C(=O)N(C4CCC(=O)NC4=O)C6=O)C5)CC3)sc2-c2ccnc(N)n2)c1F (racemic)
[out] 30 to 70%

[in] # Dmax lookup, item CCCS(=O)(=O)Nc1cccc(-c2nc(C(C)(C)C)sc2-c2ccnc(Nc3ccc(C4CCN(C(=O)C5CN(c6ccc(C7CCC(=O)NC7=O)cn6)C5)CC4)cc3)n2)c1F (racemic)
[out] > 70%

[in] # Dmax lookup, item CCCS(=O)(=O)Nc1cccc(-c2nc(C(C)(C)C)sc2-c2ccnc(Nc3ccc(C4CCN(C(=O)C5CCN(c6ccc7c(c6)C(=O)N(C6CCC(=O)NC6=O)C7=O)CC5)CC4)cc3)n2)c1F (racemic)
[out] 30 to 70%

[in] # Dmax lookup, item CCCS(=O)(=O)Nc1cccc(-c2nc(C(C)(C)C)sc2-c2ccnc(Nc3cccc(OC4CCN(C(=O)C[C@H]5CCN(c6ccc(C7CCC(=O)NC7=O)cc6)C5)CC4)c3)n2)c1F (mixture of isomers)
[out] 30 to 70%

[in] # Dmax lookup, item CCCS(=O)(=O)Nc1cccc(-c2nc(C3CCN(C(=O)C4CCN(C(=O)C5CCN(c6ccc(C7CCC(=O)NC7=O)cn6)CC5)CC4)CC3)sc2-c2ccnc(NC)n2)c1F (racemic)
[out] > 70%
